growth values, listed per item
test system: HT29 colon; assay: NCI-60 one-dose screen, 48 h (100 = growth as untreated, 0 = no growth, -100 = all killed); details: 10 µM unless noted
About 83,000 compounds went through this panel and 20% of them were active in at least one assay; those are over-represented in the sample as a whole.
measurement-kind: growth (%)

1. CCOC(=O)c1cnc2c(C)cc(C)cc2c1NCCCN(C)C	13.1
2. Cc1[nH]cnc1/C=C1\SC(N2CCCCC2)=NC1=O	108
3. Nc1ccc2c(c1)Cc1cc(Cl)c(Cl)cc1-2	93.1
4. O=C(COc1ccc(/C=C2\Cc3ccccc3C2=O)cc1)c1ccc(Cl)cc1	109
5. c1ccc(-c2n(Cc3ccc4ccccc4c3)cc[n+]2Cc2ccc3ccccc3c2)cc1	-83.8
6. N#Cc1ccc(-c2csc(Nc3ccc4nc5n(c(=O)c4c3)CCC5)n2)cc1	105
7. CO[C@H]1/C=C/O[C@@]2(C)Oc3c(C)c(O)c4c(O)c(c(/C=N/N5C(C)CN(Cc6ccc(C#N)cc6)CC5C)c(O)c4c3C2=O)NC(=O)/C(C)=C\C=C\[C@H](C)[C@H](O)[C@@H](C)[C@@H](O)[C@@H](C)[C@H](OC(C)=O)[C@@H]1C (stereo partly specified)	26.4
8. O=C1NC(=O)/C(=C/c2ccc(Cl)cc2Cl)N1	121
9. COc1ccc(C2CC(c3ccc(Nc4ccnc5cc(Cl)ccc45)cc3)=NN2C(C)=O)cc1 (stereo unspecified)	27.4
10. O=C1Nc2ccc(C(=O)O)c(O)c2C1=O	117
11. O=C1N=C(N2CCOCC2)S/C1=C\c1cn(-c2ccccc2)nc1-c1ccccc1	80.5
12. O=C(O)C1CCN(S(=O)(=O)c2ccc(-c3ccccc3)cc2)CC1	111
13. COC(=O)N/N=C/c1coc2ccc(Cl)cc2c1=O	95.4
14. COc1ccc(C2CC(c3ccc4c(c3)OCO4)=NN2C=O)cc1 (stereo unspecified)	98
15. Oc1c(Cl)cc(Oc2cc(Cl)c(O)c(CN3CCOCC3)c2)cc1CN1CCOCC1	105
16. Nc1nc(Nc2ccccc2SSc2ccccc2Nc2nc(N)nc(-c3ccc(I)cc3)n2)nc(-c2ccc(I)cc2)n1	97.8
17. O=C(Nc1ccc2c(c1)C(=O)c1ccccc1-2)c1ccccc1	35.8
18. O=C(COc1cccc(/C=C2\Oc3ccc4ccccc4c3C2=O)c1)c1ccc([N+](=O)[O-])cc1	96.5
19. O=c1oc2c(cc1-c1ccc([N+](=O)[O-])cc1)C(O)Oc1ccccc1-2 (stereo unspecified)	99.9
20. CN(C)c1ccc(-n2nc3ccccc3n2)cc1	111
21. C=C(CN1CCc2c([nH]c3ccccc23)C1)c1ccc(C(=O)Nc2ccon2)cc1	99.2
22. C[C@H]1c2cccc(O)c2C(O)=C2C(=O)[C@]3(O)C(O)=C(C(N)=O)C(=O)[C@@H](N(C)C)[C@@H]3[C@@H](O)[C@@H]21	39.6
23. COc1cc(-c2nc3nc4sc(C)c(C)c4c(=O)n3[nH]2)cc(OC)c1OC	82.3
24. COc1ccc(C(=O)/C=C/c2cccc(Nc3ccnc4cc(Cl)ccc34)c2)cc1	1.05
25. COc1ccc(/C=C2\CCc3ccccc3C2=O)cc1	80.4
26. Cc1ccc(-c2c3c(N)nc(-c4ccncc4)nc3nc3c2c(C)nn3-c2ccccc2)cc1	21.8
27. CC(=O)N1N=C(c2ccc(C(F)(F)F)cc2)CC1c1ccc2c(c1)OCO2 (stereo unspecified)	47.4
28. COc1ccc(NC(=O)c2ccccc2-c2ccccc2)c(C(N)=O)c1	11.4
29. O=C1C(=O)/C(=C/c2ccccc2)CCCCCC/C1=C/c1ccccc1	-25.6
30. CCNCCCn1c2c(c3ccc(F)cc3c1=O)C(=O)c1cc(OC)cnc1-2	-14.9
31. CC(=O)Nc1c(Cl)cc2c(c1Cl)Cc1ccccc1-2	106
32. COc1ccc(CNC(=O)c2c(C)n([O-])c3cc(F)c(F)cc3[n+]2=O)cc1	93
33. Cn1c(N2N=C(c3ccc(Cl)cc3)CC2c2ccccc2)nc(-c2ccccc2)c(C#N)c1=O (stereo unspecified)	79.3
34. Fc1ccc(-c2nn3c(-c4cc(C(F)(F)F)cc(C(F)(F)F)c4)nnc3s2)cc1	40.2
35. Cc1ccc(-c2cc(-c3ccccc3)n(-c3ccccc3)n2)cc1	96.7
36. Nc1ncnc2c1CN(Cc1ccccc1)CC2	104
37. CCOC(CNCc1cc(C)c2[nH]c3ccccc3c2c1C)OCC	53.1
38. c1ccc(N2c3nc4ccccc4cc3Sc3cc4ccccc4nc32)nc1	104
39. COc1cc(/C=C\C(C)=N\Nc2ccccc2)ccc1O	108
40. O=C(CSc1ncc(-c2ccccc2)n1-c1ccccc1)Nc1ccc(-c2nc3ccccc3s2)cc1	38.1
41. CN(C)c1ccc(-c2nc3ncc(Br)cc3o2)cc1	110

---

test system: MDA-MB-435 melanoma; assay: NCI-60 one-dose screen, 48 h (100 = growth as untreated, 0 = no growth, -100 = all killed); details: 10 µM unless noted
About 83,000 compounds went through this panel and 20% of them were active in at least one assay; those are over-represented in the sample as a whole.
Entries annotated with measured growth
measurement-kind: growth (%)

1. O=C(Nc1ccc(Cl)cc1)Nc1ccccc1CNc1nc(Nc2ccc(OCCN3CCCC3)cc2)ncc1Cl	-28.9
2. COc1ccc(-c2c3c(N)nc(-c4ccncc4)nc3nc3c2c(C)nn3-c2ccccc2)cc1	54
3. Cc1cc(=O)oc2cc(OCCn3c(C)nn(-c4ccc(Cl)cc4)c3=O)ccc12	-38.6
4. O=C1C2C(C(=O)N1CC[Se][Se]CCN1C(=O)C3C(C1=O)[C@H]1C=C[C@@H]3C1)[C@H]1C=C[C@@H]2C1 (some centres undefined)	-65.9
5. CCCn1c(N)c(C(=O)CNc2ccc(I)cc2)c(=O)[nH]c1=O	51.1
6. CC[N+](CCCCCCCCCC[N+](CC)(c1ccccn1)c1ccccn1)(c1ccccn1)c1ccccn1	-15.1
7. COc1cnc2c(c1)C(=O)c1c-2n(CCCN2CCCC2)c(=O)c2cc(F)ccc12	16
8. Cc1cc(C)nc(NS(=O)(=O)c2ccc(Nc3nc4nc(SCc5ccccc5)nc(-c5ccc(O)cc5)c4c(=O)[nH]3)cc2)n1	94.9
9. CC(C)=CCNc1ncnc2c1ncn2C1OC(COP(=O)(O)O)C(O)C1O (centres undefined)	56.7

---

test system: SK-MEL-2 melanoma; experiment: NCI-60 one-dose screen, 48 h; details: 10 µM unless noted
This is part of a sample that, as a whole, favours compounds with a hit. Of some 83,000 tested, about 20% had one in any assay. Activity calls are given as the source filed them. Rule for the calls: active = growth percent below 10; inactive = the rest.
Outcomes: active, inactive

1. Cc1cc(Cl)ccc1Nc1nc(C(F)(F)F)ccc1C(=O)N/N=C/c1ccc(Cl)cc1	active
2. CCOc1nc(-c2ccco2)n2nc(-c3ccco3)cc2n1	inactive
3. COc1ccc2c(c1)C(=Nc1cc(OC)c(OC)c(OC)c1)C(=O)N2	inactive
4. O=C1C(=O)c2c(nc3ccc(Cl)cn23)-c2ccccc21	active
5. CCc1nn2c(-c3ccc(Cl)cc3C)c(-c3cc(OC)c(OC)c(OC)c3)nc2s1	inactive
6. CCc1ccc(-c2nc(SCC(=O)NC3CCCCC3)n[nH]2)cc1	inactive
7. COc1ccc2nc(NC(=O)CN3CCn4c(nnc4C(F)(F)F)C3)sc2c1	inactive
8. O=C(N/N=C/c1cccc(O)c1O)c1ccccc1	inactive
9. CC(C)Sc1nc(Cl)c(C#N)c(-c2ccc(F)cc2)n1	inactive
10. COc1cnc2c(c1)C(=O)c1c-2n(CCCNC2=NCCS2)c(=O)c2cc(F)ccc12	inactive
11. CC(C)N(Cc1ccccc1)c1c(S)ssc1=S	active

---

Test system: HCT-15 colon
Test: NCI-60 one-dose screen, 48 h
Conditions: 10 µM unless noted
Procedure: Growth inhibition of the HCT-15 human tumor cell line is measured as a screen for anti-cancer activity. Cells are grown in 96 well plates and exposed to the test compound for 48 hours. Compounds are tested at a single concentration, which is 10^-5 M for most compounds. The reported endpoint is percent growth (GI% or GIPRCNT), where numbers from 0 - 100% represent growth inhibition, and numbers from -100% - 0 represent cell death. For example, a value of 40 represents 60% growth inhibition. […]
Compounds without any hit were thinned out: in the full panel of roughly 83,000, 20% have a hit. Calls of active or inactive are those of the source. The calls were made as follows: active = growth percent below 10; inactive = the rest.
Outcomes: Y = active, N = inactive

1) COc1ccc(Oc2ccccc2NC(=O)CNC(=O)c2cccc3ccccc23)cc1	N
2) CC1CN(/N=C/c2ccc([N+](=O)[O-])o2)C(=N)O1 (stereo not given)	N
3) CCSc1ncc(Br)c(Sc2nc(N)nc3nc[nH]c23)n1	N
4) CCOC(=O)OCC(=O)[C@@]1(O)CC[C@H]2[C@@H]3CCC4=CC(=O)CC[C@]4(C)[C@H]3[C@@H](O)C[C@@]21C	N
5) O=c1ccn(C2CC=C(CO)O2)c(=O)[nH]1 (stereo not given)	N
6) COc1ccc(CNC(=O)c2c(C)n([O-])c3ccccc3[n+]2=O)cc1	N
7) Cc1ccc(-c2cc(-c3ccccc3)n(-c3ccccc3)n2)cc1	N
8) CN1C(=O)C(C2=NN(C=O)C(c3ccc(F)cc3)C2)C(=O)N(C)C1=O (stereo not given)	N
9) CC(C)=CCNc1ncnc2c1ncn2C1OC(COP(=O)(O)O)C(O)C1O (stereo not given)	N
10) O=C(Nc1ccc(Cl)cc1)Nc1ccccc1CNc1nc(Nc2ccc(OCCN3CCCC3)cc2)ncc1Cl	Y

Value source: PubChem BioAssay (NCI)
